Biological target: human TLR9 (Homo sapiens (Human), UniProt Q9NR96)
Sequence (Q9NR96 26-1032): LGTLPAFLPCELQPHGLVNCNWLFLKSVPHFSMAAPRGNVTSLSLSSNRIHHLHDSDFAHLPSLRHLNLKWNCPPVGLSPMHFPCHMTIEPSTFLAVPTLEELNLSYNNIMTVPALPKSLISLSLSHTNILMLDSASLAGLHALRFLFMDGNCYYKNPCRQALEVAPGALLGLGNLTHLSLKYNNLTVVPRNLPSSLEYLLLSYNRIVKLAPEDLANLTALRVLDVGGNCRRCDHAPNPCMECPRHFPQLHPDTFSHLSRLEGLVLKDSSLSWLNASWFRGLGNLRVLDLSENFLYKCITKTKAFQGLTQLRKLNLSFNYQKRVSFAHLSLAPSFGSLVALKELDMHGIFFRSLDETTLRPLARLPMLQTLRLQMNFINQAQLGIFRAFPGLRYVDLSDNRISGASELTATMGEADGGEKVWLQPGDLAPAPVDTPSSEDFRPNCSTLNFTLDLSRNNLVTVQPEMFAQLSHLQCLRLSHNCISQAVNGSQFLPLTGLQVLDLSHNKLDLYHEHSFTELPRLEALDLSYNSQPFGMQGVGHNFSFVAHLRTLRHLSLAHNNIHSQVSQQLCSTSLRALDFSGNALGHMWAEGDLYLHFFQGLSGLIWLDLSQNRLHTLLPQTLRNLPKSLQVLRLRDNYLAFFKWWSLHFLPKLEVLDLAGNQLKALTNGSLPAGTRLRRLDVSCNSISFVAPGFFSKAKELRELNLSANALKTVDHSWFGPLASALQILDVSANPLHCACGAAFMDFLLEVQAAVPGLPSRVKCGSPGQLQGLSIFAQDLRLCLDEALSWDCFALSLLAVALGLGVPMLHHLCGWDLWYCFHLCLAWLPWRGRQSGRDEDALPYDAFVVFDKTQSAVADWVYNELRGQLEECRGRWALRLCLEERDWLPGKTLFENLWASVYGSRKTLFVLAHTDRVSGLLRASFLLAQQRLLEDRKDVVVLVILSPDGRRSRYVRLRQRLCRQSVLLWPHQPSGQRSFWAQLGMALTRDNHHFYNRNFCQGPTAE
Test: TLR9 inhibition reporter assay (HEK-Blue cells, SEAP reporter, ODN2006 stimulation);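 also: compounds tested over 0.05 nM to 50 µM, 22 h incubation, inhibition taken as SEAP signal drop from agonist plus DMSO wells toward a known inhibitor control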
Conditions: read-out: TLR9 IC50, HEK-Blue cells overexpressing human TLR9, ODN2006 5 nM
pIC50: −log10 of the molar value.
observed-property: pIC50

[
  {
    "compound-string": "Cc1cc(-c2[nH]c3ccc(C4CCN(C(=O)CN5CC6CCC(C5)O6)CC4)cc3c2C(C)C)cc(C)n1",
    "measured-number": 6.06
  },
  {
    "compound-string": "Cc1cc(-c2[nH]c3ccc(C4CCN(Cc5nnc(C6CC6)o5)CC4)cc3c2C(C)C)cc(C)n1",
    "measured-number": 4.32
  }
]

a = CCc1c(-c2ccnc(C)c2)[nH]c2ccc(C3CCNCC3)cc12
b = COCCCN1CCC(c2ccc3[nH]c(-c4cc(C)nc(C)c4)c(C(C)C)c3c2)CC1
Exercise: Hey, between a and b which has a smaller measured pIC50? Write down the label attached to your selection.
Solution: b
(b: 6.00, a: 6.48)

###

Target: human TLR7 (Homo sapiens (Human), UniProt Q9NYK1)
Sequence (Q9NYK1 27-1049): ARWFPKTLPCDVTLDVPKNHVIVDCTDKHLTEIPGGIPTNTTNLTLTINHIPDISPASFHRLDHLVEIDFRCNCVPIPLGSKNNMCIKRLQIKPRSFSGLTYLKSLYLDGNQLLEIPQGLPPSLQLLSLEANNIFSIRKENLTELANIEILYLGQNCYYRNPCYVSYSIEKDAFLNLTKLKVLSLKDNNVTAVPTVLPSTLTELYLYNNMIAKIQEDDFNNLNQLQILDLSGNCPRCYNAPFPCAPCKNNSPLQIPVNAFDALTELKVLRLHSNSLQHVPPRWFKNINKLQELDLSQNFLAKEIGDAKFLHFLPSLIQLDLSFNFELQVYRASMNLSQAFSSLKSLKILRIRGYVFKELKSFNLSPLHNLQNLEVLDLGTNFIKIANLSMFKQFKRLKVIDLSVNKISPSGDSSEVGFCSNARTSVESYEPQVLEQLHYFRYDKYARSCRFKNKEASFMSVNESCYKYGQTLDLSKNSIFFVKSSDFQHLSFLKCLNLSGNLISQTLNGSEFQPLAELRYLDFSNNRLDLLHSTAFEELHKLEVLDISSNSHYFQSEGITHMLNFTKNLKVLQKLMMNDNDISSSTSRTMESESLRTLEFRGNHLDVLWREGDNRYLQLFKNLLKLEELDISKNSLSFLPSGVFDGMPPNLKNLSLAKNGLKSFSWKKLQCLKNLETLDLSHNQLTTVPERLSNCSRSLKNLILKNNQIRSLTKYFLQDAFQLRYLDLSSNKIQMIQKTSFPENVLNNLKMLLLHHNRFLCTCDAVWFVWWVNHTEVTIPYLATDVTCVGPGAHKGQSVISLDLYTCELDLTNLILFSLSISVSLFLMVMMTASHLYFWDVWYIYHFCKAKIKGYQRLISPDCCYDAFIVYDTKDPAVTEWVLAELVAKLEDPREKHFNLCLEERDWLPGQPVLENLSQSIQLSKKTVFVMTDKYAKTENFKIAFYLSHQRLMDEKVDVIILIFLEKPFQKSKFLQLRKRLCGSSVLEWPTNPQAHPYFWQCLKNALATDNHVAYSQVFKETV
Experiment: TLR7 inhibition reporter assay (HEK-Blue cells, SEAP reporter, gardiquimod stimulation)
Assay type: cell-based
Details: HEK-Blue cells, gardiquimod 7.5 μM
observed-property: IC50 (nM)

[
  {
    "compound": "CNCCN1CCC(c2ccc3[nH]c(-c4ccnc(C)c4)c(C)c3c2)CC1",
    "units-label": "nM",
    "measured-number": 124
  }
]

A = CCN1CCC(N2CCC(c3ccc4[nH]c(-c5ccnc(OC)c5)c(C)c4c3)CC2)CC1
B = Cc1cc(-c2[nH]c3ccc(C4CCN(CC5CC5)CC4)cc3c2C(C)C)ccn1
Exercise: Hi team, can someone confirm which has the larger IC50: A or B ? Thanks. Your answer should be the label attached to the chosen record.
Solution: A
(A: 689 nM, B: 38.1 nM)

###

Molecular target: human TLR9 (Homo sapiens (Human))
Assay: TLR9 inhibition reporter assay (HEK-Blue cells, SEAP reporter, ODN2006 stimulation)
Conditions: read-out: TLR9 IC50, HEK-Blue cells overexpressing human TLR9, ODN2006 5 nM
observed-property: IC50 (µM)

Examples from the recorded data:
[
  {
    "compound": "Cc1nccc(-c2[nH]c3ccc(C4CCN(C(=O)CN(C)C)CC4)cc3c2C(C)C)c1F",
    "units-label": "µM",
    "IC50": 2.91
  },
  {
    "compound": "Cc1cc(-c2[nH]c3ccc(C4CCN(C(=O)[C@@H]5C[C@H](F)CN5)CC4)cc3c2C(C)C)cc(C)n1",
    "units-label": "µM",
    "IC50": 0.195
  }
]

1 = Cc1cc(-c2[nH]c3ccc(C4CCN(C5CCOC5)CC4)cc3c2C(C)C)ccn1 (stereo not shown)
2 = Cc1cc(-c2[nH]c3ccc(C4CCN(C(=O)CN(C)CC(C)C)CC4)cc3c2C(C)C)cc(C)n1
Exercise: Which of the two items, 1 and 2 , has the greater recorded IC50? Use the label to indicate which entry you chose.
Solution: 1

I = COCCOCCN1CCC(c2ccc3[nH]c(-c4cc(C)nc(C)c4)c(C(C)C)c3c2)CC1
II = Cc1cc(-c2[nH]c3ccc(C4CCN(C(=O)CN5CCC(C)CC5)CC4)cc3c2C(C)C)cc(C)n1
Exercise: Compare I and II and name the one whose reported IC50 is smaller. Answer by quoting the chosen item's label.
Solution: I

a = Cc1cc(-c2[nH]c3ccc(C4CCN(C(=O)CCNc5ncccn5)CC4)cc3c2C(C)C)cc(C)n1
b = Cc1cc(-c2[nH]c3ccc(C4CCN(CC(=O)NC56CC7CC(CC(C7)C5)C6)CC4)cc3c2C(C)C)cc(C)n1
c = Cc1cc(-c2[nH]c3ccc(C4CCN(C(=O)CN(C)C(C)C)CC4)cc3c2C(C)C)cc(C)n1
d = Cc1cc(-c2[nH]c3ccc(C4CCN(Cc5cc(C)on5)CC4)cc3c2C(C)C)c(F)cn1
Exercise: // ascending sort on recorded IC50 Form entry: labels listed in requested order.
Solution: c, b, d, a
(c: 0.447 µM, b: 4.13 µM, d: 9.45 µM, a: 46.8 µM)

1 = Cc1cc(-c2[nH]c3ccc(C4CCN(Cc5cnn(C)c5)CC4)cc3c2C(C)C)cc(C)n1
2 = CC(C)c1c(-c2cc(F)ncc2Cl)[nH]c2ccc(C3CCNCC3)cc12
3 = CNC(=O)CN1CCC(c2ccc3[nH]c(-c4cc(C)nc(C)c4)c(C(C)C)c3c2)CC1
4 = CC(C)c1c(-c2ccnc(CN)c2)[nH]c2ccc(C3CCNCC3)cc12
5 = Cc1cc(-c2[nH]c3ccc(C4CCN(C(=O)CCNS(=O)(=O)c5ccccc5)CC4)cc3c2C(C)C)cc(C)n1
Exercise: Endpoint returns the given compounds ordered by ascending IC50. Returns: the labels listed in the requested order.
Solution: 1, 3, 4, 2, 5
(1: 0.21 µM, 3: 0.789 µM, 4: 1.2 µM, 2: 6.27 µM, 5: 16.2 µM)

###

Molecular target: UniProt Q9NYK1
Assay: TLR7 inhibition reporter assay (HEK-Blue cells, SEAP reporter, gardiquimod stimulation)
Assay type: cell-based
Conditions: HEK-Blue cells overexpressing human TLR7, gardiquimod 7.5 μM
observed-property: IC50 (nM)

Study these solved cases before continuing.
[
  {
    "compound": "Cc1cc(-c2[nH]c3ccc(C4CCN(CC(O)C(F)(F)F)CC4)cc3c2C(C)C)cc(C)n1 (stereo not shown) [Example 313]",
    "IC50, nM": 39.9
  },
  {
    "compound": "COc1cc(-c2[nH]c3ccc(C4CCN(C(=O)CN(C)C)CC4)cc3c2C(C)C)ccn1",
    "IC50, nM": 41.6
  },
  {
    "compound": "Cc1cc(-c2[nH]c3ccc(C4CCN(C5CCNC(C)C5)CC4)cc3c2C(C)C)ccn1 (stereo not shown)",
    "IC50, nM": 8.1
  }
]

a = Cc1cc(-c2[nH]c3ccc(C4CCN(C(=O)CN(CCO)Cc5ccc(F)cc5)CC4)cc3c2C(C)C)cc(C)n1
b = Cc1cc(-c2[nH]c3ccc(C4CCN(CC(=O)N5CCC(F)CC5)CC4)cc3c2C(C)C)cc(C)n1
c = Cc1cc(-c2[nH]c3ccc(C4CCN(C(=O)CN5CC(C(F)(F)F)C[C@@H]5CO)CC4)cc3c2C(C)C)cc(C)n1 (stereo partly shown)
Exercise: With regard to IC50, arrange the entries in ascending order, please. Reply with the labels, ordered as the question asks.
Solution: b, a, c
(b: 2.6 nM, a: 7 nM, c: 64.5 nM)

a = Cc1cc(-c2[nH]c3ccc(C4CCN(C(=O)CNC5CCC5)CC4)cc3c2C(C)C)cc(C)n1
b = CC(C)c1c(-c2cc(Cl)ncc2C#N)[nH]c2ccc(C3CCNCC3)cc12
Exercise: Parameter check: reported IC50 is higher for which label, a or b ? Give the chosen item's label as your response.
Solution: b
(b: 199 nM, a: 2.3 nM)

###

Molecular target: human TLR8 (Homo sapiens (Human), UniProt Q9NR97)
Sequence (Q9NR97 27-1041): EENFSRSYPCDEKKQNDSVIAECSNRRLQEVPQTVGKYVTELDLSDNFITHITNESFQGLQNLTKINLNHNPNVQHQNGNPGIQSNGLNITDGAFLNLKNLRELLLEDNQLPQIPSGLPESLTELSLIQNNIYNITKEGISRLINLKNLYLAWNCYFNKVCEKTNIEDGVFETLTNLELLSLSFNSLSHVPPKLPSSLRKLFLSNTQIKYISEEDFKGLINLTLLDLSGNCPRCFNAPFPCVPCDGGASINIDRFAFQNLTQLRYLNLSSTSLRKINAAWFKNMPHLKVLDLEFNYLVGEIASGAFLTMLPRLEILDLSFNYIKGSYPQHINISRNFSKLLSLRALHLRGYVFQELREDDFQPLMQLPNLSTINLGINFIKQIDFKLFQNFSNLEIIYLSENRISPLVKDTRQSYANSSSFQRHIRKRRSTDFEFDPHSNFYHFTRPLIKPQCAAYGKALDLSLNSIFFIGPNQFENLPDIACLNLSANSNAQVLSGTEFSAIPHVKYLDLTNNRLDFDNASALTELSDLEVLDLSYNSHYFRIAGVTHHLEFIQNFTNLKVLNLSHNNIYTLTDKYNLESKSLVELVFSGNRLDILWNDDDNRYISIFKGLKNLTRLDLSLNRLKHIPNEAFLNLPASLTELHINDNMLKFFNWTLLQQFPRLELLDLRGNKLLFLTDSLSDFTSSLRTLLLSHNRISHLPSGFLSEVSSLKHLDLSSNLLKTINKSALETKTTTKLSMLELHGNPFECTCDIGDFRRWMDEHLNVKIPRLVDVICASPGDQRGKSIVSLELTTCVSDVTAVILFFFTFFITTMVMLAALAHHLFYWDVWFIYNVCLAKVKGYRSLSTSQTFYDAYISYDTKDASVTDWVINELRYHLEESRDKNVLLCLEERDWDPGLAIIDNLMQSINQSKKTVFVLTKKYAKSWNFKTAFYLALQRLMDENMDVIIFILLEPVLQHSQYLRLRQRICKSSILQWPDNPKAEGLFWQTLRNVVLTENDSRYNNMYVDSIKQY
Assay: TLR8 inhibition reporter assay (HEK-Blue cells, SEAP reporter, R848 stimulation);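 also: compounds tested from 0.05 nM to 50 µM, 22 h at 37 °C, SEAP measured with HEK-Blue Detection, inhibition relative to agonist plus DMSO versus a known inhibitor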
Conditions: read-out: TLR8 IC50, HEK-Blue cells overexpressing human TLR8, R848 15.9 μM
observed-property: IC50 (nM)

1 = Cc1cc(-c2[nH]c3ccc(C4CCN(C5CCNCC5C)CC4)cc3c2C(C)C)ccn1 (stereo not shown) [Example 709]
2 = CC(C)c1c(-c2ccnc(CO)c2)[nH]c2ccc(C3CCNCC3)cc12 [Example 22]
Exercise: Name the one with the greater IC50 value, either 1 or 2 as given. State your choice using its label.
Solution: 2

1 = Cc1cnc(N)cc1-c1[nH]c2ccc(C3CCNCC3)cc2c1C(C)C [Example 9]
2 = Cc1cc(-c2[nH]c3ccc(C4CCN(C(=O)C5CC(=O)N(C)C5)CC4)cc3c2C(C)C)ccn1 (stereo not shown) [Example 619]
3 = CCOc1cc(-c2[nH]c3ccc(C4CCN(C5CCN(CC(C)C)CC5)CC4)cc3c2CC)ccn1 [Example 768]
Exercise: Please produce an ascending ranking of these compounds based on IC50. # the answer lists labels in the order requested
Solution: 1, 2, 3
(1: 22.1 nM, 2: 67.9 nM, 3: 1190 nM)

I = CC(C)c1c(-c2cc(C3CC3)ncc2F)[nH]c2ccc(C3CCN(C(=O)C4CC(=O)N(C)C4)CC3)cc12 (stereo not shown) [Example 517]
II = CCc1c(-c2ccnc(F)c2)[nH]c2ccc(C3CCN(C4CCN(CC(C)C)CC4)CC3)cc12 [Example 759]
Exercise: Return label of the item with the larger IC50. Candidates: I , II . State your choice using its label.
Solution: I
(I: 1150 nM, II: 257 nM)

1 = Cc1cc(-c2[nH]c3ccc(C4CCN(CC(=O)N(C)CCC5(O)CCCC5)CC4)cc3c2C(C)C)cc(C)n1 [Example 303]
2 = Cc1cc(-c2[nH]c3ccc(C4CCN(Cc5ncco5)CC4)cc3c2C(C)C)cc(C)n1 [Example 449]
3 = Cc1cc(-c2[nH]c3ccc(C4CCN(C(=O)CNC5CCCOC5)CC4)cc3c2C(C)C)cc(C)n1 (stereo not shown) [Example 385]
4 = COc1ccc(CN2CCC(c3ccc4[nH]c(-c5cc(C)nc(C)c5)c(C(C)C)c4c3)CC2)cn1 [Example 424]
5 = Cc1cc(-c2[nH]c3ccc(C4CCN(C(=O)c5ccon5)CC4)cc3c2C(C)C)ccn1 [Example 604]
Exercise: # desc sort on IC50 across 5 compounds Ranked list of labels, please, in the requested order.
Solution: 5, 1, 3, 2, 4

P = Cc1cc(-c2[nH]c3ccc(C4CCN(Cc5ncon5)CC4)cc3c2C(C)C)c(F)cn1 [Example 735]
Q = Cc1cc(-c2[nH]c3ccc(C4CCN(Cc5ncco5)CC4)cc3c2C(C)C)c(C)cn1 [Example 699]
Exercise: Hi, I'm comparing two records. Which one has the lower IC50, P or Q ? Bench note: the answer is the label of the chosen record.
Solution: Q

I = Cc1cc(-c2[nH]c3ccc(C4CCN(C5CCOCC5)CC4)cc3c2C(C)C)ccn1 [Example 710]
II = Cc1cc(-c2[nH]c3ccc(C4CCN(C(=O)Cc5cn(C)cn5)CC4)cc3c2C(C)C)cc(C)n1 [Example 137]
Exercise: Short answer wanted: higher IC50, I or II ? // caller expects the label of the chosen entry
Solution: II
(II: 39.1 nM, I: 3 nM)
